Data origin, for the record: patent US20220348651A1

# target_or_system: T1, human ENTPD2 expressed on cells (human, UniProt Q9Y5L3 1-495)
# T1 sequence: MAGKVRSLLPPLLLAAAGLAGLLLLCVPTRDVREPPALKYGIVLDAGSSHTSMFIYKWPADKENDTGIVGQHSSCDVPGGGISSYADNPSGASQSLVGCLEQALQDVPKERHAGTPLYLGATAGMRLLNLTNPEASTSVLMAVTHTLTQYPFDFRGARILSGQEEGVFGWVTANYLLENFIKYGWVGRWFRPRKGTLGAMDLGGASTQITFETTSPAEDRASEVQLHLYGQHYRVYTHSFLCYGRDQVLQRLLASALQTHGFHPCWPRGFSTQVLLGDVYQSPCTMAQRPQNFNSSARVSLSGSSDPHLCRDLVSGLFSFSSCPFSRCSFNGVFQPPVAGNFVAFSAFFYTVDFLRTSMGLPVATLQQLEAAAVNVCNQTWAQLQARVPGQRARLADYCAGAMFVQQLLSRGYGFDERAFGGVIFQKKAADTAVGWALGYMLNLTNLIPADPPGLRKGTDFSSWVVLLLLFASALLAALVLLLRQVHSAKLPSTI
# measurement_protocol: cell-based or functional assay
experimental_endpoint: % inhibition, RKO Assay (%)
Your answer should be a plain number; it is taken to be in %.

{"columns": ["binder", "experimental_endpoint", "unit_label", "observed"],
 "data": [
  ["ANTI-HUMAN ENTPD2 MAB17 (antibody, human IgG1, kappa, V domains shown) VH: EVQLQQFGAELVKPGASVKISCKASGYTFTDYNMDWVKQSHGKSLEWIGDINPKYDISTYNQQFKGKATLTVDKSSSTAYMELRSLTSEDTAVYYCARRGFFLYYGINYYYFDVWGAGTTVTVSS VL: QIVLTQSPAIMSASLGEEITLTCSASSSVSYIHWYQQKSGTSPTLLIYSTSNLASGVPSRFSGSGSGTFYSLTISSVEAEDAADYYCHQWSSYPWTFGGGTKLEIKR", "% inhibition, RKO Assay", "%", 96],
  ["ANTI-HUMAN ENTPD2 MAB6 (antibody, human IgG1, kappa, V domains shown, humanized and optimized from mAb16; human IgG1, kappa; also called Anti-ENTPD2 mAb6) VH: QVQLQESGPGLVKPSQTLSLTCTVSGYSITSGYYWNWIRQHPGKGLEWMGYISYDADNNYNPSLKNRITISRDTSKNQFSLKLSSVTAADTAVYYCAGGYYRYGLGSYSGSYYYVMDYWGQGTTVTVSS VL: DTQMTQSPSSLSVSVGDRATITCKASQSVDYEGHSYMNWYQQKPGKAPKLLIYAASNLESGVPSRFSGSGSGTDFTLTISSVQPEDFATYYCQQSNEDPPTFGGGTKLEIKR", "% inhibition, RKO Assay", "%", 90],
  ["ANTI-HUMAN ENTPD2 MAB3 (antibody, human IgG1, kappa, V domains shown, humanized from mAb17; human IgG1, kappa; also called Anti-ENTPD2 mAb3) VH: QVQLVQSGAEVVKPGASVKISCKASGYTFTDYNMDWVKQAPGQRLEWIGDINPKYDISTYNQQFKGKATITVDTSASTAYMELSSLRSEDTAVYYCARRGFFLYYGINYYYFDVWGQGTLVTVSS VL: EIVLTQSPATLSASPGERITLSCSASSSVSYIHWYQQKPGQAPRLLIYSTSNLASGIPARFSGSGSGTFYTLTISSVEPEDAAVYYCHQWSSYPWTFGGGTKLEIKR", "% inhibition, RKO Assay", "%", 95],
  ["ANTI-HUMAN ENTPD2 MAB4 (antibody, human IgG1, kappa, V domains shown, humanized and optimized from mAb16; human IgG1, kappa; also called Anti-ENTPD2 mAb4) VH: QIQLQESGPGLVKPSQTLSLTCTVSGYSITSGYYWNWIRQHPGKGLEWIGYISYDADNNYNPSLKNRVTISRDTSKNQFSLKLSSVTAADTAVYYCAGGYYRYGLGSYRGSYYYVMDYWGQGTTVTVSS VL: ETVLTQSPATLSVSPGERATISCKASQSVDYEGHSYMNWYQQKPGQAPRLLIYAASNLESGIPARFSGSGSGTDFTLTISSVEPEDAATYYCQQSNEDPPTFGGGTKLEIKR", "% inhibition, RKO Assay", "%", 74],
  ["ANTI-HUMAN ENTPD2 MAB8 (antibody, human IgG1, lambda, V domains shown, also called Anti-ENTPD2 mAb8) VH: QVQLQQSGPGLVKPSQTLSLTCAISGDSVSSSSAAWNWIRQSPSRGLEWLGRIYYRSKWYNDYAVSVKSRITINPDTSKNQFSLQLNSVTPEDTAVYYCARGSYVTSSYEGFDYWGQGTLVTVSS VL: SYELTQPLSVSVALGQTARITCSGDNLPEKYAYWYQQKPGQAPVLVIYDDNKRPSGIPERFSGSNSGNTATLTISRAQAGDEADYYCQSYGKWGWTWVFGGGTKLTVLG", "% inhibition, RKO Assay", "%", 95]
]}

Task item: Return reported % inhibition, RKO Assay. Input binder: ANTI-HUMAN ENTPD2 MAB10 (antibody, human IgG1, lambda, V domains shown, also called Anti-ENTPD2 mAb10) VH: QVQLVQSGAEVKKPGSSVKVSCKASGGTFDSYAVSWVRQAPGQGLEWMGRIVPWLGFTRYAQKFQGRVTITADESTSTAYMELSSLRSEDTAVYYCARESPGYRYSFDVWDQGTLVTVSS VL: SYELTQPLSVSVALGQTARITCSGDAIGEKYVYWYQQKPGQAPVLVIYDDNNRPSGIPERFSGSNSGNTATLTISRAQAGDEADYYCASYDLQQARWVFGGGTKLTVLG
Reply: 77
